target: Folylpolyglutamate synthase, mitochondrial (Homo sapiens, UniProt Q05932); test: Compound was evaluated for the inhibition of Folyl-polyglutamate synthase in CCRF-CEM Human leukemia cell.
Sequence (Q05932 whole entry): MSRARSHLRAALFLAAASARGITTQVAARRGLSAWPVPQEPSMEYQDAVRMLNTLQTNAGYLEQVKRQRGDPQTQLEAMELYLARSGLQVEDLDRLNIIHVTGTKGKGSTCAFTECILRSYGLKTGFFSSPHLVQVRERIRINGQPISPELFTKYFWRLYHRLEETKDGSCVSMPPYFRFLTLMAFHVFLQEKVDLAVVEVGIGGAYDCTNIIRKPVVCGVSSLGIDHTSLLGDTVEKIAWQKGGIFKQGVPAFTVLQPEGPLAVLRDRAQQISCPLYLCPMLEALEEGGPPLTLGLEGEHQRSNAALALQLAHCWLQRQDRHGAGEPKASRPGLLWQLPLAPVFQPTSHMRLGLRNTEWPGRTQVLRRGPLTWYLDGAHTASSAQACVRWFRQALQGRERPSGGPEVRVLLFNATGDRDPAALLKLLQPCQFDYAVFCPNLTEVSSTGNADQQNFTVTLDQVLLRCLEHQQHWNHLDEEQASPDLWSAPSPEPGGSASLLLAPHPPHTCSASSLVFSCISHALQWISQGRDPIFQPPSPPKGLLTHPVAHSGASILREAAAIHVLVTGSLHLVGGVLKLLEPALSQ
pIC50: −log10 of the molar value.
assay-readout: pIC50

Please review the following examples before continuing.
>>> observed_measurement("Nc1nc(N)c2nc(CCc3ccc(C(=O)NC(C(=O)O)C(O)CC(=O)O)cc3)cnc2n1 (stereo not given)")
"< 4.30"
>>> observed_measurement("C=C(CC(NC(=O)c1ccc(C(CC)Cc2cnc3nc(N)nc(N)c3n2)cc1)C(=O)O)C(=O)O (stereo not given)")
3.93
>>> observed_measurement("C=C(CC(NC(=O)c1ccc(N(C)Cc2cnc3nc(N)nc(N)c3n2)cc1)C(=O)O)C(=O)O (stereo not given)")
"< 3.70"
>>> observed_measurement("C=C(CC(NC(=O)c1ccc(CCc2cnc3nc(N)nc(N)c3n2)cc1)C(=O)O)C(=O)O (stereo not given)")
"< 3.70"

In: Provide value of pIC50 for this record tested with Folylpolyglutamate synthase, mitochondrial (Homo sapiens, UniProt Q05932): CN(Cc1cnc2nc(N)nc(N)c2n1)c1ccc(C(=O)NC(C(=O)O)C(O)CC(=O)O)cc1 (stereo not given)
Out: < 3.70

* * *

test system: H35R0.3; experiment: Compound was tested for growth inhibition of H35 Hepatoma cells.; format: functional, cell-based; settings: Rattus norvegicus
assay-readout: pIC50
One number for each entry, as −log10 of the molar value.

Please review the following examples before continuing.
>>> observed_measurement("C=C(CC(NC(=O)c1ccc(N(C)Cc2cnc3nc(N)nc(N)c3n2)cc1)C(=O)O)C(=O)O (centres undefined)")
5.41
>>> observed_measurement("CN(Cc1cnc2nc(N)nc(N)c2n1)c1ccc(C(=O)N[C@@H](CCC(=O)O)C(=O)O)cc1 [METHOTREXATE]")
7.07

In: Which pIC50 reading was recorded for the molecule C=C(CC(NC(=O)c1ccc(C(CC)Cc2cnc3nc(N)nc(N)c3n2)cc1)C(=O)O)C(=O)O (centres undefined) ?
Out: 4.85

* * *

system: H35R0.3; assay: Compound was tested for inhibition of folinic acid transport in H35 Hepatoma cells.; assay type: functional, cell-based; conditions: Rattus norvegicus
assay-readout: pIC50
Give bare numbers, as −log10 of the molar value.

List reported pIC50 for each of these compounds:
1. C=C(CC(NC(=O)c1ccc(C(CC)Cc2cnc3nc(N)nc(N)c3n2)cc1)C(=O)O)C(=O)O (centres undefined)
2. C=C(CC(NC(=O)c1ccc(N(C)Cc2cnc3nc(N)nc(N)c3n2)cc1)C(=O)O)C(=O)O (centres undefined)
3. CN(Cc1cnc2nc(N)nc(N)c2n1)c1ccc(C(=O)N[C@@H](CCC(=O)O)C(=O)O)cc1 [METHOTREXATE]
4. C=C(CC(NC(=O)c1ccc(CCc2cnc3nc(N)nc(N)c3n2)cc1)C(=O)O)C(=O)O (centres undefined)

Out:
5.82
5.15
4.74
5.26

* * *

biological target: UniProtKB P00374; experiment: Compound was tested for its inhibitory activity on Recombinant Human Dihydrofolate Reductase.
Would you kindly list IC50 for each of these molecules?
Give bare numbers, in nM.

>>> observed_measurement("Nc1nc(N)c2nc(CCc3ccc(C(=O)NC(C(=O)O)C(O)CC(=O)O)cc3)cnc2n1 (stereo unspecified)")
5.9

List reported IC50 for each of these molecules:
1. C=C(CC(NC(=O)c1ccc(CCc2cnc3nc(N)nc(N)c3n2)cc1)C(=O)O)C(=O)O (stereo unspecified)
2. CN(Cc1cnc2nc(N)nc(N)c2n1)c1ccc(C(=O)NC(C(=O)O)C(O)CC(=O)O)cc1 (stereo unspecified)

Out:
1: 8.8; 2: 5.3

* * *

Would you kindly list IC50 for each of these compounds?
molecular target: Dihydrofolate reductase (Homo sapiens, UniProt P00374); test: Compound was tested for its inhibitory activity on Recombinant Human Dihydrofolate Reductase.
Sequence (P00374 whole entry): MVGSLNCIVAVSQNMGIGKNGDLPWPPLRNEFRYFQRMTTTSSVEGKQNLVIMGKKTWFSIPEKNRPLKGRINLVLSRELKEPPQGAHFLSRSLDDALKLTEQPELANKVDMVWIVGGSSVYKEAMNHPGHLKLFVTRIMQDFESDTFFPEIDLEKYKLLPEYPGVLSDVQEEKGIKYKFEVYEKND
Answers are plain numbers, in nM.

Please review the following examples before continuing.
>>> observed_measurement("C=C(CC(NC(=O)c1ccc(N(C)Cc2cnc3nc(N)nc(N)c3n2)cc1)C(=O)O)C(=O)O (stereo not drawn)")
6.4
>>> observed_measurement("C=C(CC(NC(=O)c1ccc(C(CC)Cc2cnc3nc(N)nc(N)c3n2)cc1)C(=O)O)C(=O)O (stereo not drawn)")
5.8

In: Which IC50 reading was recorded for the compound Nc1nc(N)c2nc(CCc3ccc(C(=O)N[C@@H](CCC(=O)O)C(=O)O)cc3)cnc2n1 ?
Out: 4.1
